# Kd per entry
# experimental target: BoNT/A light chain (recombinant) (Clostridium botulinum, UniProt P0DPI0 1-448)
# Sequence (P0DPI0 1-448 limits assumed): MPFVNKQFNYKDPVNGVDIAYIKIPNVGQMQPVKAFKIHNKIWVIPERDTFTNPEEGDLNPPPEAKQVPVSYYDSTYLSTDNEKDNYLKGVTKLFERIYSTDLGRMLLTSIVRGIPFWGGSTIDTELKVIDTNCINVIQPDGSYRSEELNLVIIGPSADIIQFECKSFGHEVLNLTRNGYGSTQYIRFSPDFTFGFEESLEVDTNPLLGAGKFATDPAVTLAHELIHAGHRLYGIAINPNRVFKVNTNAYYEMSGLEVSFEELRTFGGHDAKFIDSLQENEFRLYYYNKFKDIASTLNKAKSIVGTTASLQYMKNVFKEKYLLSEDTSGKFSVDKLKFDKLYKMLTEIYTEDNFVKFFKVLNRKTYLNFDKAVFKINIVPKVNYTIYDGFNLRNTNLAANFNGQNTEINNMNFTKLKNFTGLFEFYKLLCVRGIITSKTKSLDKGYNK
# assay explanation: yeast scFv FACS
Please state the number and follow it with the unit.

Worked examples, 3 binders total:
1C10 scFv (scFv, mouse) scFv: QIQLLQPGTELVRPGTSVKLSCKASGYTFTNYWMHWVKQRPGQGLEWIGVIDPSDSYTNYNQKFKGKATLTVDTSSSTAYMQLSSLTFEDSAVYYCARYSGPYAMDYWGQGTTLTVSAVDLKSGGSTSGSGKPGSGEGSSGSAREIVLTQSPASLAVSLGQRATISCRACESVDYDGDSYMNWYQQKPGQPPKLLIYAASNLESGIPARFSGSGSGTDFTLNIHPVEEEDAATYYCLQSNEAPWTFGGGTKLEIK = 4.85 nM
9B2 scFv (scFv, mouse) scFv: QVQLQQSGAELVRPGASVKLSCTASGFNIEDDYMHWVKQRPEQGLEWIGRIDPANGNTEYAPKFQDKATITADTSSNTAYLQLSRLTSEDTAVYYCARGGWLGNYYAMDYWGQGTSVTVSSVDLKSGGSTSGSGKPGSGEGSSGSARDIVMTQTPLTLSVTIGQPASISCRSSQSLLHNYGNTYLHWYLQKPGQSPKLLIYKVSNRFSGVPDRFSGSGSGTDFTLKISRVEAEDLGVYFCSQGTHVPWTFGGGTKLEIK = 0.67 nM
10B4 scFv (scFv, mouse) scFv: QVQLKESGPGLVKPSQTVSLTCTVTGYSITNGNHWWNWIRQVSGSKLEWIGYISSSGYTDINPSLKSRISITRDTSKNQLFLQLNSVTTEDIATYYCARDDGYYEALDYWGQGTSVTVSSVDLKSGGSTSGSGKPGSGEGSSGSARDIVMSQSPAIMSASPGEKVTLTCSASSSVSSNYLYWYQQKPGSSPKLWIYSTSNLASGVPARFSGSGSGTSYSLTISRVEAEDAATYYCQQWSSNPPTFGGGTKLEIK = 1.53 nM

Let us examine a further case.
GET /value?item= 1D9 scFv (scFv, mouse) scFv: EVKLVESGGDLVKPGGSLKLSCAASGFTFSSYGMSWVRQTPDKRLEWVATISSGGSYTYYPDNVKGRFTISRDNAKNNLFLQMSHLKSEDTAMYYCARDWDYYYGSYWYFDVWGTGTSVTVSSVDLKSGGSTSGSGKPGSGEGSSGSARENVLTQSPAILSASPGEKVTMTCRASSSVSYMHWYQQKPGSSPRLLIYDTSNLASGVPVRFSGSGSGTSYSLTISRMEAEDAATYYCQQWSSYPYTFGGGTKLEIK &field=Kd returns 9.13 nM
